The origin of these recorded values is PubChem BioAssay.

assay: drug combination growth inhibition, ovarian cancer – cell-based, oncology-focused library, rucaparib conditional, profiling panel (AID 1508598); conditions: patient-derived ovarian cancer cells, CellTiter-Glo viability, 144 h; at 0.0195 µM; OCI-C5x cells; with rucaparib 10 µM; 100% = cells with rucaparib alone
Activity calls are given as the source filed them.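 Rule for the calls: active = normalized viability below 100% at a tested concentration; inactive = the rest.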
Log the outcome using a class from active, inactive

Ask | Which outcome was entered for the molecule `Cc1nc(N)sc1-c1ccnc(Nc2ccc(N3CCOCC3)cc2)n1` in this test?
Reply | inactive

Ask | Which outcome was entered for the molecule `CS(=O)(=O)N1CCc2c(-c3cnc(N)nc3)nc(N3CCOCC3)nc21` in this test?
Reply | inactive

Ask | Which outcome was entered for the molecule `Cc1cc(CS(=O)(=O)c2ccccc2)cc(OCc2ccc(CN3CCC[C@@H]3CO)cc2)c1` in this test?
Reply | inactive

Ask | Which outcome was entered for the molecule `CNc1nc(-c2ccc3c(N)n[nH]c3c2)cc(N2C[C@@H](C(=O)NC3CCCCC3)CC[C@H]2C)n1` in this test?
Reply | inactive

Ask | Which outcome was entered for the molecule `Cc1ccc(F)c(NC(=O)Nc2ccc(-c3cccc4[nH]nc(N)c34)cc2)c1` in this test?
Reply | inactive

Ask | Which outcome was entered for the molecule `C=C(c1ccc(C(=O)O)cc1)c1cc2c(cc1C)C(C)(C)CCC2(C)C` in this test?
Reply | inactive

Ask | Which outcome was entered for the molecule `Nc1nc(Nc2ccc(S(N)(=O)=O)cc2)nn1C(=O)c1c(F)cccc1F` in this test?
Reply | active

Ask | Which outcome was entered for the molecule `CC(=O)Nc1nc(C)c(-c2ccc(Cl)c(S(=O)(=O)NCCO)c2)s1` in this test?
Reply | inactive
